- measured_target: human FPR2 (Homo sapiens (Human), UniProt P25090)
- Sequence (P25090 whole entry): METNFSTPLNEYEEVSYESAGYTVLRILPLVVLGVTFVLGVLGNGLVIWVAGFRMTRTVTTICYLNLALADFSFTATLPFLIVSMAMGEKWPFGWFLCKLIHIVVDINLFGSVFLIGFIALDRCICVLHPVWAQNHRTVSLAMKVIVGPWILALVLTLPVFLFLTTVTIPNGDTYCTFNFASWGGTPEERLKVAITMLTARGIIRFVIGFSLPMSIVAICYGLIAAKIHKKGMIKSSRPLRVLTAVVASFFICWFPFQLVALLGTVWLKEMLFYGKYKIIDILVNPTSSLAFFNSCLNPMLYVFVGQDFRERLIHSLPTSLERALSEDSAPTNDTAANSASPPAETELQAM
- protocol_text: FPR2 cyclic adenosine monophosphate (cAMP) assay
- test_parameters: CHO cells overexpressing human FPR2; forskolin 5 µM; inhibition of cAMP production; read-out: hFPR2 cAMP2 EC50
pEC50: −log10 of the molar value.
Reported pEC50 is given for each of the following molecules.
property_label: pEC50

smiles_record=COc1cc(F)c([C@@H]2CN(c3cccc(C4CCN(CCO)CC4)n3)C(=O)[C@H]2NC(=O)c2ccc(OC(F)F)cc2)c(F)c1 observed_measurement=8.89
smiles_record=COc1ccc([C@@H]2CN(c3c(C)ccn(CC4CC4)c3=O)C(=O)[C@H]2NC(=O)c2ccc(OC(F)F)cc2)c(F)c1 observed_measurement=8.29
smiles_record=COc1cc(F)c([C@@H]2CN(c3cccc(N4C[C@@H](C)N(C)[C@@H](C)C4)n3)C(=O)[C@H]2NC(=O)c2ccc(OC(F)F)cc2)c(F)c1 observed_measurement=8.96
smiles_record=COc1cc(F)c([C@@H]2CN(c3nccc(N4CCN(S(C)(=O)=O)CC4)c3C(F)(F)F)C(=O)[C@H]2NC(=O)c2ccc(OC(F)F)cc2)c(F)c1 observed_measurement=8.08
smiles_record=COc1cc(C2CCNCC2)nc(N2C[C@@H](c3c(F)cc(OC)cc3F)[C@H](NC(=O)c3ccc(OC(F)F)cc3)C2=O)c1 observed_measurement=8.47
smiles_record=COc1cc(F)c([C@H]2[C@H](NC(=O)c3ccc(OC(F)F)cc3)C(=O)N(c3cccc(C4CCN(CC(F)F)CC4)n3)[C@H]2C)c(F)c1 observed_measurement=8.00

* * *

- measured_target: human FPR1 (Homo sapiens (Human))
- protocol_text: FPR1 cyclic adenosine monophosphate (cAMP) assay
- test_parameters: CHO cells overexpressing human FPR1; forskolin 10 µM; inhibition of cAMP production; read-out: hFPR1 cAMP EC50
pEC50: −log10 of the molar value.
property_label: pEC50

smiles_record=COc1cc(F)c([C@@H]2CN(c3nc(C4CCOCC4)ccc3N(C)C)C(=O)[C@H]2NC(=O)c2ccc(OC(F)F)cc2)c(F)c1 measured_target="human FPR1 (Homo sapiens (Human))" observed_measurement=6.92
smiles_record=COc1cc(F)c([C@@H]2CN(c3cccn(CCO)c3=O)C(=O)[C@H]2NC(=O)c2ccc(C)cc2)c(F)c1 measured_target="human FPR1 (Homo sapiens (Human))" observed_measurement=5.85
smiles_record=COc1cc(F)c([C@@H]2CN(c3cccn(CCF)c3=O)C(=O)[C@H]2NC(=O)c2ccc(OC(F)(F)F)cc2)c(F)c1 measured_target="human FPR1 (Homo sapiens (Human))" observed_measurement=7.30

* * *

- measured_target: human FPR1 (Homo sapiens (Human), UniProt P21462)
- Sequence (P21462 whole entry): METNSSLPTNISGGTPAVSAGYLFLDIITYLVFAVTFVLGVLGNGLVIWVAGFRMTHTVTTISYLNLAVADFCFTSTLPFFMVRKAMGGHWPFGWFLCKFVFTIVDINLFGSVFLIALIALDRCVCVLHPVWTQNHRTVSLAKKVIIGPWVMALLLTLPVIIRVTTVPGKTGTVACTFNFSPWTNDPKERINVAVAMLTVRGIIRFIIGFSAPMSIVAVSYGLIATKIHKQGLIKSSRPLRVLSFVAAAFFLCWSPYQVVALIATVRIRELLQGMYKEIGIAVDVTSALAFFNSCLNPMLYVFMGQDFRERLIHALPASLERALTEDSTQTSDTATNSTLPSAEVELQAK
- protocol_text: FPR1 cyclic adenosine monophosphate (cAMP) assay
- test_parameters: CHO cells overexpressing human FPR1; forskolin 10 µM; inhibition of cAMP production; read-out: hFPR1 cAMP EC50
Please assign a class to every record based on measured EC50, with ranges low = under 7 nM, medium = from 7 nM up to 60 nM, high = 60 nM and over

compound="COc1cc(F)c([C@@H]2CN(c3c(C)ccn([C@H]4COC[C@@H]4O)c3=O)C(=O)[C@H]2NC(=O)c2ccc(Cl)cc2)c(F)c1 [Example 621]" classification=high
compound="COCC(CO)n1cccc(N2C[C@@H](c3c(F)cc(OC)cc3F)[C@H](NC(=O)c3ccc(OC(F)(F)F)cc3)C2=O)c1=O (stereo partly shown) [Example 144]" classification=medium
compound=COc1cc(F)c([C@@H]2CN(c3ccnc(N4C[C@@H]5C[C@H]4CN5C)c3C(F)(F)F)C(=O)[C@H]2NC(=O)c2ccc(OC(F)F)cc2)c(F)c1 classification=high
compound=COc1cc(F)c([C@@H]2CN(c3c(C)ccn(C4CC4)c3=O)C(=O)[C@H]2NC(=O)c2ccc(OC(F)(F)F)cc2)c(F)c1 classification=low
compound="COc1cc(F)c([C@@H]2CN(c3c(C)ccn(C4CCNC4)c3=O)C(=O)[C@H]2NC(=O)c2ccc(OC(F)(F)F)cc2)c(F)c1 (stereo partly shown) [Example 613]" classification=medium
compound=CCn1cccc(N2C(=O)[C@@H](NC(=O)c3ccc(OC(F)F)cc3)[C@H](c3c(F)cc(OC)cc3F)[C@@H]2C)c1=O classification=high
compound=COc1cc(F)c([C@@H]2CN(c3cc(Cl)cn(C)c3=O)C(=O)[C@H]2NC(=O)c2ccc(Cl)cc2)c(F)c1 classification=high
compound=Cc1ccn(CC(F)F)c(=O)c1N1C[C@@H](c2ccc(Cl)cc2)[C@H](NC(=O)c2ccc(OC(F)(F)F)cc2)C1=O classification=low
compound=CCn1cccc(N2C[C@@H](c3c(F)cc(OC)cc3F)[C@H](NC(=O)c3ccc(Cl)cc3)C2=O)c1=O classification=medium
compound=COc1cc(N2C[C@@H](c3c(F)cc(OC)cc3F)[C@H](NC(=O)c3ccc(OC(F)(F)F)cc3)C2=O)nc(C(C)(C)O)c1 classification=high
compound="COc1cc(F)c([C@@H]2CN(c3c(C)ccn(CC(O)C4CC4)c3=O)C(=O)[C@H]2NC(=O)c2ccc(OC(F)F)cc2)c(F)c1 (stereo partly shown) [Example 685]" classification=low
compound=COc1ccc([C@@H]2CN(c3cccn(CC(F)F)c3=O)C(=O)[C@H]2NC(=O)c2ccc(OC(F)F)cc2)c(F)c1 classification=low
compound="COc1cc(F)c([C@@H]2CN(c3c(C)ccn(CC(O)C(F)(F)F)c3=O)C(=O)[C@H]2NC(=O)c2ccc(OC(F)F)cc2)c(F)c1 (stereo partly shown) [Example 489]" classification=low

* * *

- measured_target: human FPR1 (Homo sapiens (Human), UniProt P21462)
- protocol_text: FPR1 cyclic adenosine monophosphate (cAMP) assay
- test_parameters: CHO cells overexpressing human FPR1; forskolin 10 µM; inhibition of cAMP production; read-out: hFPR1 cAMP EC50
Field 'label' (enum: Fulfilled / Not fulfilled). Set to Fulfilled when EC50 is strictly under 800 nM; else Not fulfilled.

compound=COc1cc(F)c([C@@H]2CN(c3cc(C)cc(N4C[C@@H]5C[C@H]4CN5C)n3)C(=O)[C@H]2NC(=O)c2ccc(OC(F)F)cc2)c(F)c1 classification="Not fulfilled"
compound=COc1cc(N2C[C@@H]3C[C@H]2CN3C)nc(N2C(=O)[C@@H](NC(=O)c3ccc(Cl)cc3)[C@H](c3c(F)cc(OC)cc3F)[C@H]2C)c1 classification="Not fulfilled"
compound=COc1cc(F)c([C@@H]2CN(c3nc(N4CC(F)(F)C4)ccc3F)C(=O)[C@H]2NC(=O)c2ccc(OC(F)F)cc2)c(F)c1 classification=Fulfilled
compound=CCn1cccc(N2C(=O)[C@@H](NC(=O)c3ccc(OC(F)F)cc3)[C@H](c3c(F)cc(OC)cc3F)[C@H]2C)c1=O classification=Fulfilled
compound=COc1cc(F)c([C@@H]2CN(c3c(C)ccn(C4CCC4)c3=O)C(=O)[C@H]2NC(=O)c2ccc(OC(F)(F)F)cc2)c(F)c1 classification=Fulfilled
compound=CCn1cc(C)c(C)c(N2C[C@@H](c3c(F)cc(OC)cc3F)[C@H](NC(=O)c3ccc(OC(F)F)cc3)C2=O)c1=O classification=Fulfilled
compound=COc1cc(F)c([C@@H]2CN(c3cccc(C4CCN(CCO)CC4)n3)C(=O)[C@H]2NC(=O)c2ccc(OC(F)F)cc2)c(F)c1 classification=Fulfilled
compound=COc1cc(F)c([C@@H]2CN(c3cccn(CC(C)(C)O)c3=O)C(=O)[C@H]2NC(=O)c2ccc(OC(F)F)cc2)c(F)c1 classification=Fulfilled
compound=COc1ccc([C@@H]2CN(c3c(C)ccn(CC(F)F)c3=O)C(=O)[C@H]2NC(=O)c2ccc(OC(F)(F)F)cc2)cc1 classification=Fulfilled
compound="COc1cc(F)c([C@@H]2CN(c3c(C)ccn(CC(O)C4CC4)c3=O)C(=O)[C@H]2NC(=O)c2ccc(OC(F)(F)F)cc2)c(F)c1 (stereo partly drawn)" classification=Fulfilled
compound=COc1cc(F)c([C@@H]2CN(c3nc(N4C[C@@H](C)N(C)[C@@H](C)C4)ccc3F)C(=O)[C@H]2NC(=O)c2ccc(OC(F)F)cc2)c(F)c1 classification=Fulfilled
compound=COc1cc(F)c([C@@H]2CN(c3cc(NC(C)=O)cn(C)c3=O)C(=O)[C@H]2NC(=O)c2ccc(OC(F)F)cc2)c(F)c1 classification=Fulfilled

* * *

- measured_target: human FPR2 (Homo sapiens (Human), UniProt P25090)
- protocol_text: FPR2 cyclic adenosine monophosphate (cAMP) assay
- test_parameters: CHO cells overexpressing human FPR2; forskolin 5 µM; inhibition of cAMP production; read-out: hFPR2 cAMP2 EC50
property_label: log10 EC50 (log10 of the value in nM)

compound="COc1cc(F)c([C@@H]2CN(c3nccc(N4CCC(C)(O)C4)c3C(F)(F)F)C(=O)[C@H]2NC(=O)c2ccc(Cl)cc2)c(F)c1 (stereo partly shown) [Example 480]" property_label="log10 EC50" observed_measurement=0.76
compound="COc1cc(F)c([C@@H]2CN(c3c(C)ncn(CC(F)F)c3=O)C(=O)[C@H]2NC(=O)c2ccc(Cl)cc2)c(F)c1 [Example 533]" property_label="log10 EC50" observed_measurement=0.60
compound="COc1cc(F)c([C@@H]2CN(c3cccn(CC(OC)C(F)(F)F)c3=O)C(=O)[C@H]2NC(=O)c2ccc(Cl)cc2)c(F)c1 (stereo partly shown) [Example 417]" property_label="log10 EC50" observed_measurement=0.46
compound="COc1cc(F)c([C@@H]2CN(c3ccc(C(=O)O)n(CCO)c3=O)C(=O)[C@H]2NC(=O)c2ccc(OC(F)(F)F)cc2)c(F)c1 [Example 703]" property_label="log10 EC50" observed_measurement=1.76
compound="COc1ccc([C@@H]2CN(c3cccn(CC(O)C(F)(F)F)c3=O)C(=O)[C@H]2NC(=O)c2ccc(OC(F)(F)F)cc2)cc1 (stereo partly shown) [Example 656]" property_label="log10 EC50" observed_measurement=0.40
compound="COc1cc(F)c([C@@H]2CN(c3cccn(CC(O)CO)c3=O)C(=O)[C@H]2NC(=O)c2ccc(OC(F)(F)F)cc2)c(F)c1 (stereo partly shown) [Example 669]" property_label="log10 EC50" observed_measurement=1.04
compound="CCn1ccc(N2C[C@@H](c3c(F)cc(OC)cc3F)[C@H](NC(=O)c3ccc(OC(F)(F)F)cc3)C2=O)n1 [Example 649]" property_label="log10 EC50" observed_measurement=0.11
compound="COc1cc(F)c([C@@H]2CN(c3nccc(OC4CCOC4)c3C(F)(F)F)C(=O)[C@H]2NC(=O)c2ccc(Cl)cc2)c(F)c1 (stereo partly shown) [Example 709]" property_label="log10 EC50" observed_measurement=1.15
compound="COc1cc(F)c([C@H]2[C@H](NC(=O)c3ccc(OC(F)(F)F)cc3)C(=O)N(c3cccn(CCO)c3=O)[C@H]2C)c(F)c1 [Example 301]" property_label="log10 EC50" observed_measurement=0.97
compound="COc1ccc([C@@H]2CN(c3c(C)ccn(CC(F)F)c3=O)C(=O)[C@H]2NC(=O)c2ccc(Cl)cc2)c(F)c1 [Example 377]" property_label="log10 EC50" observed_measurement=0.20
compound="COc1cc(F)c([C@@H]2CN(c3cccn(CCN(C)C)c3=O)C(=O)[C@H]2NC(=O)c2ccc(OC(F)F)cc2)c(F)c1 [Example 97]" property_label="log10 EC50" observed_measurement=0.43
compound="COc1cc(F)c([C@@H]2CN(c3cccn(CC(O)CO)c3=O)C(=O)[C@H]2NC(=O)c2ccc(Cl)cc2)c(F)c1 (stereo partly shown) [Example 677]" property_label="log10 EC50" observed_measurement=0.72
compound="COc1cc(F)c([C@@H]2CN(c3nc(OCC4CCOC4)ccc3F)C(=O)[C@H]2NC(=O)c2ccc(OC(F)F)cc2)c(F)c1 (stereo partly shown) [Example 535]" property_label="log10 EC50" observed_measurement=0.00
